species on record: Rattus norvegicus; experiment: Antinidatory effect was measured in rat relative to that of prostaglandin F2 alpha.; assay type: functional

# COMPOUND, BOUND SIGN, Activity
rows = [
    ("COC(=O)CCC/C=C\\C[C@@H]1[C@@H](/C=C/[C@@H](O)C2(Sc3ccccc3)CC2)[C@H](O)C[C@@H]1O", "<", 2),
    ("COC(=O)CCC/C=C\\C[C@@H]1[C@@H](/C=C/[C@@H](O)C#Cc2ccccc2)[C@H](O)C[C@@H]1O", "=", 40),
    ("COC(=O)CCC/C=C\\C[C@@H]1[C@@H](/C=C/[C@@H](O)C#COc2ccccc2)[C@H](O)C[C@@H]1O", "<", 2),
    ("COC(=O)CCC/C=C\\C[C@@H]1[C@@H](/C=C/[C@@H](O)C2C=Cc3ccccc32)[C@H](O)C[C@@H]1O (some centres not stated)", "<", 5),
    ("COC(=O)CCC/C=C\\C[C@@H]1[C@@H](/C=C/[C@@H](O)C#Cc2cccc(Cl)c2)[C@H](O)C[C@@H]1O", "=", 40),
    ("COC(=O)CCC/C=C\\C[C@@H]1[C@@H](/C=C/[C@@H](O)CC(=O)c2ccccc2)[C@H](O)C[C@@H]1O", "=", 40),
    ("COC(=O)CCC/C=C\\C[C@@H]1[C@@H](/C=C/[C@@H](O)CSC2=CCCCC2)[C@H](O)C[C@@H]1O", "=", 10),
]

----------
Activity values for the compounds below.
species on record: Rattus norvegicus; experiment: Antinidatory effect was measured in rat relative to that of prostaglandin F2 alpha.; assay type: functional

# COMPOUND STRUCTURE STRING, Activity
data = [
    ("COC(=O)CCC/C=C\\C[C@@H]1[C@@H](/C=C/[C@@H](O)c2ccccc2OC)[C@H](O)C[C@@H]1O", "<2"),
    ("COC(=O)CCC/C=C\\C[C@@H]1[C@@H](/C=C/[C@@H](O)C[Si](C)(C)c2ccccc2)[C@H](O)C[C@@H]1O", "<1"),
    ("COC(=O)CCC/C=C\\C[C@@H]1[C@@H](/C=C/[C@@H](O)CC(=O)Oc2ccccc2)[C@H](O)C[C@@H]1O", "<1"),
    ("COC(=O)CCC/C=C\\C[C@@H]1[C@@H](/C=C/[C@@H](O)c2cc3ccccc3o2)[C@H](O)C[C@@H]1O", 100),
    ("COC(=O)CCC/C=C\\C[C@@H]1[C@@H](/C=C/[C@@H](O)CC(=O)c2cccc(Cl)c2)[C@H](O)C[C@@H]1O", 10),
]

----------
Activity values for the compounds below.
species: Rattus norvegicus; experiment: Antinidatory effect was measured in rat relative to that of prostaglandin F2 alpha.; assay type: functional

# COMPOUND, BOUND SIGN, Activity
records = [
    ("COC(=O)CCC/C=C\\C[C@@H]1[C@@H](/C=C/[C@@H](O)C(Oc2ccccc2)C(=O)OC)[C@H](O)C[C@@H]1O (some centres undefined)", "<", 4),
    ("COC(=O)CCC/C=C\\C[C@@H]1[C@@H](/C=C/[C@@H](O)CC(=O)c2ccc(Cl)cc2)[C@H](O)C[C@@H]1O", "=", 8),
    ("COC(=O)CCC/C=C\\C[C@@H]1[C@@H](/C=C/[C@@H](O)C#Cc2ccc(Cl)cc2)[C@H](O)C[C@@H]1O", "=", 1),
    ("COC(=O)CCC/C=C\\C[C@@H]1[C@@H](/C=C/[C@@H](O)c2cc3ccccc3s2)[C@H](O)C[C@@H]1O", "=", 40),
]
